biological target: V600E full-length B-Raf (Homo sapiens, UniProt P15056, V600E); construct: 1 μM FSBA-MEK and 20 nM V600E full-length B-Raf; made in house; host or cells: sf9 insect cells (baculovirus); assay: B-Raf IC50 Assay (B-RAF V600E inhibition assay, Example A); format: biochemical; conditions: incorporation of radio labeled phosphate from [γ-33P]ATP into FSBA-modified wild-type MEK; 4 μM ATP, 20 nM V600E full-length B-Raf, 60-minute incubation, 22° C.; read-out: BRAF V600E IC50
Sequence (P15056 whole entry V600E): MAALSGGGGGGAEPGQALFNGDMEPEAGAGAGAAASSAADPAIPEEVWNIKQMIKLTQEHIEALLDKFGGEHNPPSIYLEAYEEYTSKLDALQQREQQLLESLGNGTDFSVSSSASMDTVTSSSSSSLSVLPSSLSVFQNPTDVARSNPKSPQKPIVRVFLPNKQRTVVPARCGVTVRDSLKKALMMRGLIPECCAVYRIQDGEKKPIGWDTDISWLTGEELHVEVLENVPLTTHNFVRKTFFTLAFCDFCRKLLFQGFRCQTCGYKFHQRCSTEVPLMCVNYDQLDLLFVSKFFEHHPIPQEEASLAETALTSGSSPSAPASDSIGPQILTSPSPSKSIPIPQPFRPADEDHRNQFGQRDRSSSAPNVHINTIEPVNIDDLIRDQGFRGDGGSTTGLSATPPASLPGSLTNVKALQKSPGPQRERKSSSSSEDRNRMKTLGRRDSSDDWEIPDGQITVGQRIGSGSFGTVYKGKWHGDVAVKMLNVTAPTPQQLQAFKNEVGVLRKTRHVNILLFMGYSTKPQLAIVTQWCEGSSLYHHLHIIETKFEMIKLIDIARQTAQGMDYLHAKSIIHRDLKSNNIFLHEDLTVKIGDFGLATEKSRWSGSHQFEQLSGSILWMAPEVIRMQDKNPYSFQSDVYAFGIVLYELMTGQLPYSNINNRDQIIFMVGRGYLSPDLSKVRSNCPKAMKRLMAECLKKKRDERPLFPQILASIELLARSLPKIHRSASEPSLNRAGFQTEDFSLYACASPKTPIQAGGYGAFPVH
parameterMeasured: pIC50
Remember the convention: pIC50 equals -log10 of concentration in molar.

For the compound "CCCS(=O)(=O)Nc1ccc(F)c(NC(=O)c2scc3c(N)ncnc23)c1F" , the measured pIC50 on V600E full-length B-Raf (Homo sapiens, UniProt P15056, V600E) was 7.53

For the compound "CCCS(=O)(=O)Nc1cc(F)c(F)c(NC(=O)c2csc3c(NC(C)C)ncnc23)c1F" , the measured pIC50 on V600E full-length B-Raf (Homo sapiens, UniProt P15056, V600E) was 7.55

For the compound "CCCS(=O)(=O)Nc1cc(F)c(F)c(NC(=O)c2csc3c(NC4CC(F)(F)C4)ncnc23)c1F" , the measured pIC50 on V600E full-length B-Raf (Homo sapiens, UniProt P15056, V600E) was 6.93

For the compound "CCCNc1ncnc2c(C(=O)Nc3c(F)ccc(NS(=O)(=O)CCC)c3F)csc12" , the measured pIC50 on V600E full-length B-Raf (Homo sapiens, UniProt P15056, V600E) was 7.96

For the compound "CCCS(=O)(=O)Nc1ccc(F)c(NC(=O)c2csc3c(N)ncnc23)c1Cl" , the measured pIC50 on V600E full-length B-Raf (Homo sapiens, UniProt P15056, V600E) was 9.07

For the compound "O=C(Nc1c(Cl)ccc(NS(=O)(=O)CCCF)c1F)c1csc2c(NC3CC3)ncnc12" , the measured pIC50 on V600E full-length B-Raf (Homo sapiens, UniProt P15056, V600E) was 9.60

For the compound "CCCS(=O)(=O)Nc1ccc(F)c(NC(=O)c2csc3c(Nc4ccccn4)ncnc23)c1F" , the measured pIC50 on V600E full-length B-Raf (Homo sapiens, UniProt P15056, V600E) was 7.57

For the compound "CCCS(=O)(=O)Nc1ccc(F)c(NC(=O)c2csc3c(NCCOC)ncnc23)c1F" , the measured pIC50 on V600E full-length B-Raf (Homo sapiens, UniProt P15056, V600E) was 6.75
